- Test system: E. coli
- PROTOCOL SUMMARY: MIC values, E. coli (Tables 1-4)
- Format: cell-based
PARAMETER MEASURED: MIC E. coli
Report as: number unit

| MOLECULE | MIC E. coli |
| --- | --- |
| CO[C@H]1/C=C/O[C@@]2(C)Oc3c(C)c(O)c4c(=O)c(c5oc6cc(N7CCC(N8CCOCC8)CC7)cc(O)c6nc-5c4c3C2=O)NC(=O)/C(C)=C\C=C\[C@H](C)[C@H](O)[C@@H](C)[C@@H](O)[C@@H](C)[C@H](OC(C)=O)[C@@H]1C [Compound 9] | 8 µg/mL |

Now, please, on to the next molecule.
Given the molecule CCOC(=O)N1CCCC2CN(c3cc(O)c4nc5c6c7c8c(C)c(O)c6c(=O)c(c-5oc4c3)NC(=O)C(C)=CC=CC(C)C(O)C(C)C(O)C(C)C(O)C(C)C(OC)C=COC(C)(O8)C7=O)CC21 (centres unmarked) [Compound 42] , write its reported MIC E. coli. 8 µg/mL

###

- Tested on: E. coli
- PROTOCOL SUMMARY: MIC values, E. coli (Tables 1-4)
- Assay type: cell-based
PARAMETER MEASURED: MIC E. coli

Here are 2 compounds together with their reported answers.
| COMPOUND | READING |
| --- | --- |
| CCOC(=O)NC1C2CN(c3cc(O)c4nc5c6c7c8c(C)c(O)c6c(=O)c(c-5oc4c3)NC(=O)C(C)=CC=CC(C)C(O)C(C)C(O)C(C)C(OC(C)=O)C(C)C(OC)C=COC(C)(O8)C7=O)CC21 (centres unmarked) | 4 µg/mL |
| CO[C@H]1/C=C/O[C@@]2(C)Oc3c(C)c(O)c4c(=O)c(c5oc6cc(N7CCN(CC8CC8)CC7)cc(O)c6nc-5c4c3C2=O)NC(=O)/C(C)=C\C=C\[C@H](C)[C@H](O)[C@@H](C)[C@@H](O)[C@@H](C)[C@H](O)[C@@H]1C | 2 µg/mL |

For every listed record, write down its MIC E. coli.
1. CCOC(=O)NC1CCN(c2cc(O)c3nc4c5c6c7c(C)c(O)c5c(=O)c(c-4oc3c2)NC(=O)/C(C)=C\C=C\[C@H](C)[C@H](O)[C@@H](C)[C@@H](O)[C@@H](C)[C@H](O)[C@H](C)[C@@H](OC)/C=C/O[C@@](C)(O7)C6=O)CC1
2. COC(=O)NC1CCN(c2cc(O)c3nc4c5c6c7c(C)c(O)c5c(=O)c(c-4oc3c2)NC(=O)/C(C)=C\C=C\[C@H](C)[C@H](O)[C@@H](C)[C@@H](O)[C@@H](C)[C@H](O)[C@H](C)[C@@H](OC)/C=C/O[C@@](C)(O7)C6=O)CC1
3. CO[C@H]1/C=C/O[C@@]2(C)Oc3c(C)c(O)c4c(=O)c(c5oc6cc(F)ccc6nc-5c4c3C2=O)NC(=O)/C(C)=C\C=C\[C@H](C)[C@H](O)[C@@H](C)[C@@H](O)[C@@H](C)[C@H](O)[C@@H]1C
4. CO[C@H]1/C=C/O[C@@]2(C)Oc3c(C)c(O)c4c(=O)c(c5oc6cc(N7CC8CCC(C7)N8)cc(O)c6nc-5c4c3C2=O)NC(=O)/C(C)=C\C=C\[C@H](C)[C@H](O)[C@@H](C)[C@@H](O)[C@@H](C)[C@H](OC(C)=O)[C@@H]1C [Compound 10]
5. CO[C@H]1/C=C/O[C@@]2(C)Oc3c(C)c(O)c4c(=O)c(c5oc6cc(N7C[C@@H]8CCCN(C)[C@@H]8C7)cc(O)c6nc-5c4c3C2=O)NC(=O)/C(C)=C\C=C\[C@H](C)[C@H](O)[C@@H](C)[C@@H](O)[C@@H](C)[C@H](OC(C)=O)[C@@H]1C
6. CO[C@H]1/C=C/O[C@@]2(C)Oc3c(C)c(O)c4c(=O)c(c5oc6c7c(cc(O)c6nc-5c4c3C2=O)N(C(C)C)CCN7C(C)C)NC(=O)/C(C)=C\C=C\[C@H](C)[C@H](O)[C@@H](C)[C@@H](O)[C@@H](C)[C@H](OC(C)=O)[C@@H]1C

4 µg/mL
>8 µg/mL
>8 µg/mL
>8 µg/mL
>8 µg/mL
>8 µg/mL
